biological target: T1, human OT7T175 (metastin receptor) (human, UniProt Q969F8 1-398); test: competition with Cy-5 metastin (40-54) on hOT7T175-CHO cells, FMAT
T1 construct: expressed on CHO cells; also called hOT7T175; hOT7T175-expressed CHO cells
T1 sequence (Q969F8 whole entry L364H): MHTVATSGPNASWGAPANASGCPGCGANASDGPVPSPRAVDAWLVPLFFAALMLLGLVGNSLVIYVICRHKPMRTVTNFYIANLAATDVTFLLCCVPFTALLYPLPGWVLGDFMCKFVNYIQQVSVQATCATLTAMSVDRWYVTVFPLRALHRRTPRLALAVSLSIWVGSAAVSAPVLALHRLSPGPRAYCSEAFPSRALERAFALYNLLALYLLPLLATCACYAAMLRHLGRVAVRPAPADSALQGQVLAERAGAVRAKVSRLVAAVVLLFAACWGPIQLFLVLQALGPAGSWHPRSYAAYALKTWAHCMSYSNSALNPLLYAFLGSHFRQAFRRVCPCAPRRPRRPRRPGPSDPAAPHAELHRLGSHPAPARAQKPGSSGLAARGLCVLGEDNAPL
pIC50: −log10 of the molar value. Non-standard residues stand in square brackets, D forms with d. No end group written: not given here. Orn = NCCC[C@H](N)C(=O)O
readout kind: pIC50

binder	value
YNWNSFGL[Orn]F-NH2 (N-terminus assumed; SMILES CC(C)C[C@H](NC(=O)CNC(=O)[C@H](Cc1ccccc1)NC(=O)[C@H](CO)NC(=O)[C@H](CC(N)=O)NC(=O)[C@H](Cc1c[nH]c2ccccc12)NC(=O)[C@H](CC(N)=O)NC(=O)[C@@H](N)Cc1ccc(O)cc1)C(=O)N[C@@H](CCCN)C(=O)N[C@@H](Cc1ccccc1)C(N)=O, also called Compound No. 314) [[Orn9]MS10]	6.33
YNWNSFGLRX (Cha10; C-terminal amide, also called Compound No. 112) [[Cha10]MS10]	6.43

The values you see were collected from patent US20090298765A1.
